Target: Hepatocyte Growth Factor (HGF), human (human, UniProt P14210 32-728)
Sequence (P14210 32-728): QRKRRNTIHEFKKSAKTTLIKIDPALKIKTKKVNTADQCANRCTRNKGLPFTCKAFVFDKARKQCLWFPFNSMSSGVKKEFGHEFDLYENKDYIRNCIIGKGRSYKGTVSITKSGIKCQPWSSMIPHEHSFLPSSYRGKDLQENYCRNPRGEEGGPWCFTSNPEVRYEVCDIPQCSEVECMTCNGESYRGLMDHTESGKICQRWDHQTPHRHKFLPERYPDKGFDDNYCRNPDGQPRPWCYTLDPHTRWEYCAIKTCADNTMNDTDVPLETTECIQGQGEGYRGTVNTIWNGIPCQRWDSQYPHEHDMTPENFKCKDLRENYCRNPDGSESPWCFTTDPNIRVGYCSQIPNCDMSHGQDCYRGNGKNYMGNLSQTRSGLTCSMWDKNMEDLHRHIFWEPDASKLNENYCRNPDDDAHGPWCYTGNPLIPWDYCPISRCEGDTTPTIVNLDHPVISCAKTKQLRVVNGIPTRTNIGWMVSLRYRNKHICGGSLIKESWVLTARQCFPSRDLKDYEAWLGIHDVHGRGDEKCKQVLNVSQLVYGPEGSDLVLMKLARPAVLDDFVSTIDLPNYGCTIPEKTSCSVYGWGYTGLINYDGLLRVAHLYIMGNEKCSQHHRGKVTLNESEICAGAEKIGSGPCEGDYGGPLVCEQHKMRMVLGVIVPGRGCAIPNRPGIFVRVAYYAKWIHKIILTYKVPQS
Test: ELISA
METRIC: pEC50
Conceptually, pEC50 converts a concentration in mol/L into minus its log10.

For HC 8/SLC 6 (antibody) chain 1: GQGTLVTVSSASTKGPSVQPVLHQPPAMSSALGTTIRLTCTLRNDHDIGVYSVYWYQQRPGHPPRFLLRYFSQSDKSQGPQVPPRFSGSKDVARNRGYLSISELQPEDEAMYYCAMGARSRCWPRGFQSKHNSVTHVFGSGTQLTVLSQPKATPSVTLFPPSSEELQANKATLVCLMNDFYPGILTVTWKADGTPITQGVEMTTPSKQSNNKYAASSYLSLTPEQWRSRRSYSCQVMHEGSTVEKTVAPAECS chain 2: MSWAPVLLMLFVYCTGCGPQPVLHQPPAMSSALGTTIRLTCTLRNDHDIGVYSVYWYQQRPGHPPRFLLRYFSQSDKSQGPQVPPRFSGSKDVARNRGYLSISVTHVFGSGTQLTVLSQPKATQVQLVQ the binder record lists pEC50 as 10.21
